- Target: Aryl hydrocarbon receptor (Homo sapiens, UniProt P35869)
- Sequence (P35869 whole entry): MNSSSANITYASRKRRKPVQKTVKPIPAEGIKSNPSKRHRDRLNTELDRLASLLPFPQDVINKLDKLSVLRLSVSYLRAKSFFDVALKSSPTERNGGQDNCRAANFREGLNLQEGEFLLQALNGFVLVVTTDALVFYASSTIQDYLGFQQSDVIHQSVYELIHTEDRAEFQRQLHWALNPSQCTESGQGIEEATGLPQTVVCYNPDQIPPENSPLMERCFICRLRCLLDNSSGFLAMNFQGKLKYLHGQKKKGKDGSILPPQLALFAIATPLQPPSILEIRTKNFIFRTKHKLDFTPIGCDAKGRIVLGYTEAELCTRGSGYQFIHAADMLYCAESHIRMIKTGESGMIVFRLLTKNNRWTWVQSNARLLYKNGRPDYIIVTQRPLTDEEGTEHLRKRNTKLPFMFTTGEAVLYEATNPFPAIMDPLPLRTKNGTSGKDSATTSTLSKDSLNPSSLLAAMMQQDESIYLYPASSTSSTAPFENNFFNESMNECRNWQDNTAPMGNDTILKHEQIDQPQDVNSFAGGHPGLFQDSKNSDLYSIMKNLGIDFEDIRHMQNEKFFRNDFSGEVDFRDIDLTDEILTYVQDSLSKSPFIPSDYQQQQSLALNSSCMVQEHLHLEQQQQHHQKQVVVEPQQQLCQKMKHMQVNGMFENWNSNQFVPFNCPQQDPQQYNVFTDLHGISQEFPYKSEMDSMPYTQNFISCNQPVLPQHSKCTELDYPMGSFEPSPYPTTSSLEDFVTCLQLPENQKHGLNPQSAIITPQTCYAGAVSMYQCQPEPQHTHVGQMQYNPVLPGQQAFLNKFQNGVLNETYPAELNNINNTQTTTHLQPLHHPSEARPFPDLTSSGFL
- Assay: Luminescence-based cell-based high throughput dose response assay for activators of the Aryl Hydrocarbon Receptor (AHR). [Related pubchem assays: 2796 (Primary screen (AHR activators in singlicate)), 2845 (Confirmation screen (AHR activators in triplicate)), 434939 (Counterscreen (PXR activators in triplicate)), 2804 (Summary (AHR activators))]
- Format: ADME
Calls of active or inactive are those of the source.
Measurement kind: EC50

- CCCC(=O)Nc1nn(C)c2nc3cc(C)ccc3cc12: 0.458 µM (active)
- CCOC(=O)Cc1cc(-c2ccc(O)cc2)nc2ccc3ccccc3c12: 1.47 µM (active)
- COC(=O)c1ccccc1NC(=O)Cn1ccnc1: 2.18 µM (active)
- O=C(O)COn1c(-c2ccccc2)nc2ccc([N+](=O)[O-])cc21: 4.82 µM (active)

###

- Target: Large T antigen (Simian virus 40, UniProt P03070);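 further: Confirmatory-stage PubChem screen for compounds that inhibit SV40 T antigen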
- Sequence (P03070 whole entry): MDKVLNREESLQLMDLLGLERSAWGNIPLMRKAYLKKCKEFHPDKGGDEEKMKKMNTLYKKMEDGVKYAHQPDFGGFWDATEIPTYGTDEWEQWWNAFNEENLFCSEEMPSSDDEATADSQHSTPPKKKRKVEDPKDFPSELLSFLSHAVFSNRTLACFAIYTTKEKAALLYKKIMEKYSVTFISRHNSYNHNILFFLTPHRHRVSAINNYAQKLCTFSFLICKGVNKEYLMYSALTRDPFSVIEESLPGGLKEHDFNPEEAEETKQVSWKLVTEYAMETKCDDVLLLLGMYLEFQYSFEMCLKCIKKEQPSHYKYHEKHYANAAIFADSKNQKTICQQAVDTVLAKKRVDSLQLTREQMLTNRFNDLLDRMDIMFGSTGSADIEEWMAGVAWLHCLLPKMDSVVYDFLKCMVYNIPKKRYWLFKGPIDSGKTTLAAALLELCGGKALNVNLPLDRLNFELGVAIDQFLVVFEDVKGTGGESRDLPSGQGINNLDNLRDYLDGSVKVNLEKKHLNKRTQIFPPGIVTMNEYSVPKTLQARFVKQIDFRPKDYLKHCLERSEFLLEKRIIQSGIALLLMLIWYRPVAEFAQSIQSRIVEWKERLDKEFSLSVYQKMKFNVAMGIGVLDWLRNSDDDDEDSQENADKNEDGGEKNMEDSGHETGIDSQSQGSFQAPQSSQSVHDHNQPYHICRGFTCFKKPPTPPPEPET
- Format: functional, Betapolyomavirus macacae
Calls of active or inactive are those of the source.
Parameter IC50: see the listing below.
Measurement kind: IC50

• CCCCN1C(=O)/C(=C(/C#N)C(N)=O)c2ccccc21 = 60.5 µM (active)
• O=c1ccc2cc(O)c(O)cc2o1 = 25.9 µM (active)
• O=C1CSC(=S)N1/N=C/c1ccc(O)c([N+](=O)[O-])c1 = 26.8 µM (active)
• CCN(CC)c1ccc(NC(=O)c2cccc(F)c2)c(C)c1 = 28.3 µM (active)
• COc1cc(/C=N\Nc2cc(=O)n(C)c(=O)n2C)ccc1O = 23.7 µM (active)
• O=C(c1ccc2ccccc2c1)N1CCN(c2ccc(O)cc2)CC1 = 9.84 µM (active)

###

- System: Streptococcus
- Assay: Group A Streptococcus viability loss, dose response, counter-screen for streptokinase expression inhibitor project, luminescence, BacTiterGlo (AID 1915);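 further: potency for reduction of bacterial viability or growth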
- Assay type: functional, organism-based
Activity calls are given as the source filed them.
Measurement kind: EC50

- COc1ccccc1NS(=O)(=O)c1cc(NC(S)=NCC2CCCO2)ccc1C (stereo not drawn): > 150 µM (not active)
- O=C1C(Nc2ccc(O)cc2)=C/C(=N/S(=O)(=O)c2cccs2)c2ccccc21: 7.1 µM (active)
- COc1ccc(Cl)cc1C(=O)NNC(=S)NC(=O)c1cc(-c2ccc(Cl)cc2)nc2ccccc12: 6 µM (active)
- COc1ccc(-c2cc(-c3ccc(Cl)cc3)[nH]n2)c(O)c1: 9.14 µM (active)
- O=C(Nc1nccs1)c1sc2ccccc2c1Cl: > 150 µM (not active)
- CCCOC(=O)c1ccc(Oc2c[nH]nc2-c2ccc(OC)cc2O)cc1: 10.3 µM (active)
- O=C(NNC(=O)c1ccccc1OCc1ccccc1Cl)c1csc(N2CCOCC2)n1: > 150 µM (not active)
- O=C(NC(=S)NNC(=O)c1ccccc1O)c1ccco1: 7.67 µM (active)

###

- Target: Cytochrome P450 2C19 (Homo sapiens, UniProt P33261)
- Sequence (P33261 whole entry): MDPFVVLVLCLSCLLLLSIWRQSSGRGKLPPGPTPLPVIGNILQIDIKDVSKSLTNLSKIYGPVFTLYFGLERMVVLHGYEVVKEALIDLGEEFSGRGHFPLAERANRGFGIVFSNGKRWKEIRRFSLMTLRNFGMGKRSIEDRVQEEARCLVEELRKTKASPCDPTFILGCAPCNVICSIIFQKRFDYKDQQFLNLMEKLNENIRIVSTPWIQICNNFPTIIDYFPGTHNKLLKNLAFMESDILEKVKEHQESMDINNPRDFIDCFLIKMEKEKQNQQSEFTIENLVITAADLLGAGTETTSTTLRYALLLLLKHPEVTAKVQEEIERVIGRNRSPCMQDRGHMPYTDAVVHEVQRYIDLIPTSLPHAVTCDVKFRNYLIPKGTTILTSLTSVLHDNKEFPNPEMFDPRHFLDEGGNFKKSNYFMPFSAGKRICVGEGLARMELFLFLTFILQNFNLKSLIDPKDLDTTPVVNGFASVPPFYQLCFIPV
- Assay: Cytochrome panel assay with activity outcomes. Panel member name: p450-cyp2c19 Compounds with AC50 equal or less than 10 uM are considered active
- Assay type: functional
- Setup conditions: read-out: AC50
Parameter AC50: see the listing below.
Measurement kind: AC50

* COc1ccc(/C=N/N(C(C)=O)c2nc(-c3ccc(C)cc3)cs2)cc1 | 0.447 µM (inconclusive)
* O=C(/C=C/c1ccccc1Cl)NCCN1CCOCC1 | 5.01 µM (inconclusive)
* CCCCOC(=O)NS(=O)(=O)c1sc(CC(C)C)cc1-c1ccc(Cn2c(CC)nc3c(C)cc(C)nc32)cc1 | 15.8 µM (inconclusive)
* Cc1ccc(C)c(NC(=O)Cn2nnc(C(=O)Nc3c(C)cccc3C)c2N)c1 | 17.8 µM (inconclusive)
* O=C(NCCCN1CCN(c2cccc(Cl)c2)CC1)C1CCC(=O)N1Cc1ccccc1Cl (stereo unspecified) | 10 µM (inconclusive)
* Oc1nc(N2CCCCCC2)nc(N2CCCCCC2)n1 | 5.62 µM (inconclusive)
* COc1cc(/C=C2/C(=N)N3OC(C)=CC3=NC2=O)ccc1OCCOc1ccc(C)cc1 | 4.47 µM (inconclusive)
* Cc1cc(OC(=O)c2ccccc2Br)cc(=O)n1C | 39.8 µM (inconclusive)
* C#CCCCC(=S)Nc1ccccc1 | 39.8 µM (inconclusive)
* O=C(COc1ccccc1)Nc1ccc(-c2nnc(-c3ccco3)o2)cc1 | 10 µM (inconclusive)
* NC(=S)Nc1ccc(Oc2ccc(NC(N)=S)cc2)cc1 | 25.1 µM (inconclusive)

###

- Target: Calpain-2 catalytic subunit (Sus scrofa)
- Sequence (P43367 whole entry): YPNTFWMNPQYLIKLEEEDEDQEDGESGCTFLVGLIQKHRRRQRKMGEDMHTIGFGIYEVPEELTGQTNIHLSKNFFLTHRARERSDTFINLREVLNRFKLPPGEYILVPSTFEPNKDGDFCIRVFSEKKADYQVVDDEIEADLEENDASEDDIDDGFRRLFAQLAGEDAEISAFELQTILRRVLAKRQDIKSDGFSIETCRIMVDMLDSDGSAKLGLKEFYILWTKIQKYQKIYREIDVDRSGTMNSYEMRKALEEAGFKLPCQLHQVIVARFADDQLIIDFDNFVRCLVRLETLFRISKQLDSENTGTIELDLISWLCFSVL
- Assay: pig calpain II inhibitor potency, dose response, biochemical, fluorogenic peptide substrate (AID 1420)
- Format: functional
Parameter IC50: see the listing below.
Measurement kind: IC50

- Cc1ccc2oc(=O)n(Cc3ccccc3OC(C)C)c2c1: > 50 µM (not active)
- O=C(Nc1nc(=O)[nH]s1)c1ccccc1: > 50 µM (not active)
- CCOC(=O)CSc1nc(C(C)C)nc2sc(C)c(C)c12: 2.34 µM (not active)
- CCN1/C(=C/c2ccc3cc(C)ccc3[n+]2CC)Sc2ccccc21: 16.4 µM (not active)
- Cc1ccc(SCC(=O)c2c(C)nc3cc(C)ccn23)cc1: 6.79 µM (not active)
- O=C(N/N=C/c1cc(Br)cs1)c1c[nH]c2ccccc12: 4.39 µM (not active)

###

Parameter IC50: see the listing below.
- Target: Glucose-6-phosphate 1-dehydrogenase (Homo sapiens)
- Sequence (P11413 whole entry): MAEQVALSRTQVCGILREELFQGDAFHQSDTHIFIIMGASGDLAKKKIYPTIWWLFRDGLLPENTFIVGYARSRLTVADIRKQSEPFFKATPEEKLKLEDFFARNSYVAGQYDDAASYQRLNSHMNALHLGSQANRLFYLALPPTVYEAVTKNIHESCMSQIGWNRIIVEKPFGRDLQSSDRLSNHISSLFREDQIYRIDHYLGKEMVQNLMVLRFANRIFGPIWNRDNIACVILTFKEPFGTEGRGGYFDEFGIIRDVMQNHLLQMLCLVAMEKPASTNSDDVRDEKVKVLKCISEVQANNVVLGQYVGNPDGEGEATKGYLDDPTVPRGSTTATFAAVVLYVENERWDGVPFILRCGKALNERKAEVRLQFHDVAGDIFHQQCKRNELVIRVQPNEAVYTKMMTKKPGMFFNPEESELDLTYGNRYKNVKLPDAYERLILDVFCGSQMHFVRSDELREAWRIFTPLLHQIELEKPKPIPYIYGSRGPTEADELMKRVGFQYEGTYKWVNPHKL
- Assay: human G6PD enzyme inhibitors, dose response, selectivity assay for P. falciparum G6PD inhibitor project, biochemical, fluorescence (AID 504792)
- Format: functional
The source made the active and inactive calls.
Measurement kind: IC50

• O=S(=O)(Nc1cc(Sc2nc[nH]n2)c(O)c2ccccc12)c1ccccc1 = 21.1 µM (inactive)
• COc1ccc(S(=O)(=O)Nc2cc(SCC(=O)O)c(O)c3ccccc23)cc1 = 21.1 µM (inactive)
• Oc1ccc(/C=N/N=C(c2ccccc2)c2ccccc2)c(O)c1O = 79.2 µM (inactive)
• C=CC/N=c1\scc(-c2ccco2)n1/N=C/c1ccc(O)c(O)c1O = > 80 µM (inactive)
• CCCCC1C(=O)N(c2ccccc2)N(c2ccc(O)cc2)C1=O (stereo unspecified) [OXYPHENBUTAZONE ANHYDROUS] = > 80 µM (inactive)
• CC(=O)c1cccc(NC(=O)c2cnn(-c3ccccc3)c2C)c1 = > 80 µM (inactive)

###

- Target: Mannose-6-phosphate isomerase (Homo sapiens, UniProt P34949)
- Sequence (P34949 whole entry): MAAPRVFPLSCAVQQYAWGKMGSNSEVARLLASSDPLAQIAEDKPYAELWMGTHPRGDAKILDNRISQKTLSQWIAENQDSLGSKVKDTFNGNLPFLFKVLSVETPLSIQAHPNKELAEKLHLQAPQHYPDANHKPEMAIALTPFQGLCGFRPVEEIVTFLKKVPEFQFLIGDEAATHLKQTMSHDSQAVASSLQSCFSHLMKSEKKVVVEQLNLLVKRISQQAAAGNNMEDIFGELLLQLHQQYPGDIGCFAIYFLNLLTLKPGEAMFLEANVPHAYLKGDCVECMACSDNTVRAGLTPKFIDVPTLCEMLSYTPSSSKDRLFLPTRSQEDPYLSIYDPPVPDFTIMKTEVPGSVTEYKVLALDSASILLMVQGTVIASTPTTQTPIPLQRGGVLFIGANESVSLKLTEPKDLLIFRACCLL
- Assay: human PMI inhibitors, high substrate, primary screen, biochemical, fluorescence intensity, high mannose 6-phosphate (AID 1220)
Active and inactive are the calls of the source.
Parameter IC50: see the listing below.
Measurement kind: IC50

- O=S(=O)(Nc1cc(Sc2nc[nH]n2)c(O)c2ccccc12)c1ccccc1: 3.32 µM (active)
- Oc1ccc(/C=N/N=C(c2ccccc2)c2ccccc2)c(O)c1O: 12.1 µM (active)
- Cc1cc(C=C2C(=O)N(C)C(=S)N(C)C2=O)c(C)n1-c1cccnc1: > 50 µM (not active)
- COc1ccc(N(C)C(=O)Nc2ccc3nsnc3c2)cc1: > 50 µM (not active)
- CCC(C)C1=CC(=Nc2c(C)n(C)n(-c3ccccc3)c2=O)C=C(C(C)CC)C1=O (stereo not drawn): > 50 µM (not active)
- Clc1ccc(/N=c2\ssnc2Cl)cc1: > 50 µM (not active)
- Oc1cc(-c2ccccc2)c2ccccc2c1: 14.4 µM (active)
- O=c1ccc2cc(O)c(O)cc2o1: > 50 µM (not active)

###

- Target: Heat shock factor protein 1 (Mus musculus, UniProt P38532)
- Sequence (P38532 whole entry): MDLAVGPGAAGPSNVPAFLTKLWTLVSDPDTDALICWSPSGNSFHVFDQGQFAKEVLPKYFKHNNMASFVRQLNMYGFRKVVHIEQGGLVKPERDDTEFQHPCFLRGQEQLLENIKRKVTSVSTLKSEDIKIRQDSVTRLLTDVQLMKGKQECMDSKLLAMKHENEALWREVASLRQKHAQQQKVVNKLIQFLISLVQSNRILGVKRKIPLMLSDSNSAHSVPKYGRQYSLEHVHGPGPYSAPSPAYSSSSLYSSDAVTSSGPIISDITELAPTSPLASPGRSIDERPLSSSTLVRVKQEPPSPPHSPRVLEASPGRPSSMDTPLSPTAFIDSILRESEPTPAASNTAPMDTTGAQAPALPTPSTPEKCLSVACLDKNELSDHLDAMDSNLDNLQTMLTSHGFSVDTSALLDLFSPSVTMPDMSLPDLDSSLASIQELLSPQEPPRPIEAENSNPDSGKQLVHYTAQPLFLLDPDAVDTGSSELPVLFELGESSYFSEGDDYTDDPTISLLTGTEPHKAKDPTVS
- Assay: inhibition of MG132-induced HSE-luciferase signal, confirmation, cell-based, NIH3T3, luminescence, dose retest (AID 2382);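 further: NIH3T3 fibroblasts with HSF1-driven luciferase reporter stressed by proteasome inhibitor MG132; luminescence from HSF1-driven luciferase expression after 8 hours of MG132 stress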
- Assay type: functional
The source made the active and inactive calls.
Measurement kind: EC50

* CSCCC(NC(=O)CCC(=O)OCC(=O)[C@@]1(O)CCC2[C@@H]3CCC4=CC(=O)C=C[C@]4(C)C3[C@@H](O)C[C@@]21C)C(=O)O (stereo not given in full) | 0.216 µM (active)
* O=C(NCc1ccco1)C(=O)NCC(c1ccco1)N1CCOCC1 (stereo not given) | > 195 µM (not active)
* CC(C)(C)C(=O)/C=C/c1ccc(Oc2ccccc2)cc1 | > 195 µM (not active)
* CCOC(=O)C1C(=O)OC(C)(C)C1C(C)C(=O)c1ccc(C)cc1 (stereo not given) | > 195 µM (not active)
* CC1CCN(C2=NC(=O)/C(=C/c3ccccc3F)S2)CC1 | > 195 µM (not active)
